All values here come from ChEMBL document CHEMBL1121556.

Consider the following molecules and their measured LD0 readings.
tested on: Mus musculus; experiment: In vivo acute toxicity (nonlethal dose) against mice by intraperitoneal administration; type: organism-based; conditions: ip
Numeric answer only, unit mg/kg assumed.

| MOLECULE | ENDPOINT_VALUE |
| --- | --- |
| COc1ccc2[nH]c3c(C)c4ccnc(NCCCN(C)C)c4c(C)c3c2c1 | 15 |
| CCN(CC)CCCC(C)Nc1nccc2c(C)c3[nH]c4ccc(OC)cc4c3cc12 (stereo not given) | 1.5 |
| CCN(CC)CCCNc1nccc2c(C)c3[nH]c4ccc(O)cc4c3c(C)c12 | 2.5 |
| COc1ccc2[nH]c3c(C)c4ccnc(NCCCN)c4c(C)c3c2c1 | 10 |

Please examine the following record next.
Find the recorded LD0 belonging to CCN(CCCN)CCCNc1nccc2c(C)c3[nH]c4ccc(OC)cc4c3cc12 and report it.
5

====

test system: Mus musculus; experiment: In vivo acute toxicity (nonlethal dose) against mice by intravenous administration; format: organism-based
MEASURED_METRIC: LD0 (mg/kg)
Numeric answer only, unit mg/kg assumed.

Example results:
| SMILES_STRUCTURE | ENDPOINT_VALUE |
| --- | --- |
| CCN(CC)CCCNc1nccc2c(C)c3[nH]c4ccc(O)cc4c3cc12 | 5 |
| CCN(CC)CCCNc1nccc2c(C)c3[nH]c4ccc(O)cc4c3c(C)c12 | 2 |

Find the recorded LD0 belonging to CCN(CC)CCCNc1nccc2c(C)c3[nH]c4ccc(OC)cc4c3c(C)c12 and report it.
20

====

Consider the following compounds and their measured log10 of LD100 readings.
system: Mus musculus; test: In vivo acute toxicity (lethal dose) against mice by intraperitoneal administration; type: organism-based; details: ip
Note: values are log10 of LD100 expressed in mg/kg.

Example results:
| COMPOUND | TESTED_TARGET | log10 of LD100 |
| --- | --- | --- |
| CCN(CC)CCCNc1nccc2c(C)c3[nH]c4ccc(OC)cc4c3cc12 | Mus musculus | 1.48 |
| CCN(CC)CCCNc1nccc2c(C)c3[nH]c4ccc(O)cc4c3cc12 | Mus musculus | 1.18 |
| COc1ccc2[nH]c3c(C)c4ccnc(NCCN)c4cc3c2c1 | Mus musculus | 1.00 |
| Cc1c2ccnc(NCCN(C)C)c2cc2c1[nH]c1ccc(O)cc12 | Mus musculus | 0.70 |
| CCN(CC)CCCNc1nccc2c(C)c3[nH]c4ccc(O)cc4c3c(C)c12 | Mus musculus | 0.85 |
| COc1ccc2[nH]c3c(C)c4ccnc(NCCCN)c4c(C)c3c2c1 | Mus musculus | 1.30 |
| CCN(CCCN)CCCNc1nccc2c(C)c3[nH]c4ccc(OC)cc4c3cc12 | Mus musculus | 1.18 |
| CCN(CC)CCCC(C)Nc1nccc2c(C)c3[nH]c4ccc(OC)cc4c3cc12 (stereo unspecified) | Mus musculus | 1.48 |
| COc1ccc2[nH]c3c(C)c4ccnc(NCCCN5CCN(CCCN)CC5)c4cc3c2c1 | Mus musculus | 1.70 |
| CCN(CC)CCCNc1nccc2c(C)c3[nH]c4ccc(OC)cc4c3c(C)c12 | Mus musculus | 1.78 |

Please examine the following record next.
What reported log10 of LD100 corresponds to COc1ccc2[nH]c3c(C)c4ccnc(NCCCN(C)C)c4c(C)c3c2c1 on Mus musculus?
1.48
